Reference source for all entries: patent US20170143701A1

Tested on: NCI-H716 cells
Experiment: In vitro GLP-1 secretion-accelerating action: amount of active GLP-1 secreted (ELISA)
Type: cell-based
Conditions: Table 3, Experiment 3; 10 mM, 1 hour; Student's t-test
Procedure: Among the cyclic dipeptides, 92 highly water-soluble cyclic dipeptides were used in the following experiment. […] After 1 hour, the resultant solution was recovered, and the amount of active GLP-1 in the solution was measured by using the ELISA kit. […]
observed.property: Significant difference (p < 0.05) vs control group, amount of active GLP-1 secreted

As a guide, the following entries are already answered.
## Task Data request, read-out Significant difference (p < 0.05) vs control group, amount of active GLP-1 secreted, for C[C@@H]1NC(=O)[C@H](CCC(=O)O)NC1=O [compound 113, Cyclo(Glu-Ala)]
## Result No

## Task Request: C[C@@H]1NC(=O)[C@H](CC(=O)O)NC1=O [compound 153, Cyclo(Asp-Ala)]
## Result No

## Task Request: CC(O)C1NC(=O)CNC1=O (centres unmarked) [compound 116, Cyclo(Thr-Gly)]
## Result No

## Task Request: NC(=O)CC[C@@H]1NC(=O)CNC1=O [compound 126, cyclo-glutaminyl-glycine]
## Result Yes

Further cases:
## Task Data request, read-out Significant difference (p < 0.05) vs control group, amount of active GLP-1 secreted, for NCCCCC1NC(=O)C(CC(=O)O)NC1=O (centres unmarked) [compound 100, Cyclo(Asp-Lys)]
## Result No

## Task Request: NC(=O)C[C@@H]1NC(=O)[C@H](CC(=O)O)NC1=O [compound 170, Cyclo(Asn-Asp)]
## Result No

## Task Request: CC(C)[C@@H]1NC(=O)[C@H](CCCCN)NC1=O [compound 99, cyclo-valyl-lysine]
## Result Yes

## Task Request: C[C@H](O)[C@@H]1NC(=O)[C@H](CC(=O)O)NC1=O [compound 165, Cyclo(Asp-Thr)]
## Result No

---

Test system: C57/BL6J mice
Assay: In vivo plasma GLP-1 level-increasing action: plasma active GLP-1 level (ELISA) after oral administration
Details: Table 12, Experiment 7; 10 mg/kg oral, blood 30 minutes after; 0.5% CMC-Na group = 100
Description: Seven-week-old male C57/BL6J mice were purchased from CLEA Japan, Inc. for use, and they were subjected to an experiment after 1 week of a habituation period. After the habituation period, the mice were subjected to 5.5 hours of food deprivation and 2 hours of water deprivation. Thereafter, a cyclic dipeptide dissolved or suspended in a 0.5% CMC-Na aqueous solution in 10 mg/kg was orally administered to each mouse forcibly. […]
Threshold check on Plasma active GLP-1 level (relative value to control group as 100), average value: at or above 200 gives Fulfilled, strictly below gives Not fulfilled.

Record excerpt, results attached:
## Task Confirm if Plasma active GLP-1 level (relative value to control group as 100), average value reported for the compound `O=C(O)C[C@@H]1NC(=O)[C@H](Cc2ccc(O)cc2)NC1=O` is 200 or above.
## Result Not fulfilled

## Task Request: `C[C@@H](O)[C@@H]1NC(=O)[C@H](Cc2ccc(O)cc2)NC1=O`
## Result Fulfilled

## Task Request: N=C(N)NCCCC1NC(=O)C(Cc2ccc(O)cc2)NC1=O (centres unmarked)
## Result Fulfilled

Further cases:
## Task Confirm if Plasma active GLP-1 level (relative value to control group as 100), average value reported for the compound `CC(C)[C@@H]1NC(=O)[C@H](Cc2ccc(O)cc2)NC1=O` is 200 or above.
## Result Fulfilled

## Task Request: `NC(=O)C[C@@H]1NC(=O)[C@H](Cc2ccc(O)cc2)NC1=O`
## Result Not fulfilled
